# credit: ChEMBL document CHEMBL4308841

# Test system: Hs-578T
# protocol description: Growth inhibition of human Hs578T cells assessed as cell growth at 0.01 uM incubated for 48 hrs by sulforhodamine B assay relative to control
# Format: functional
# assay context: read-out: Activity

molecule smiles	growth at 0.01 µM (%)
O=C(Nc1cccc(-n2cc(-c3ccncc3)c(-c3cc(O)cc(Cl)c3)n2)c1)Nc1ccc(Cl)c(Cl)c1	98
O=C(Nc1cccc(-n2cc(-c3ccncc3)c(-c3cc(O)cc(Cl)c3)n2)c1)Nc1ccc(Cl)c(C(F)(F)F)c1	95
COc1cc(Cl)cc(-c2nn(-c3cccc(NC(=O)Nc4ccc(Cl)c(Cl)c4)c3)cc2-c2ccncc2)c1	93
COc1cc(Cl)cc(-c2nn(-c3cccc(NC(=O)Nc4ccc(Cl)c(C(F)(F)F)c4)c3)cc2-c2ccncc2)c1	95
O=C(Nc1cccc(-n2cc(-c3ccncc3)c(-c3cc(O)cc(Cl)c3)n2)c1)c1ccc(N2CCOCC2)c(C(F)(F)F)c1	96
